- target-or-test-system: T1, GFP-9S library array, motif 4 ND N98S (synthetic construct, N98S)
- T1 chain: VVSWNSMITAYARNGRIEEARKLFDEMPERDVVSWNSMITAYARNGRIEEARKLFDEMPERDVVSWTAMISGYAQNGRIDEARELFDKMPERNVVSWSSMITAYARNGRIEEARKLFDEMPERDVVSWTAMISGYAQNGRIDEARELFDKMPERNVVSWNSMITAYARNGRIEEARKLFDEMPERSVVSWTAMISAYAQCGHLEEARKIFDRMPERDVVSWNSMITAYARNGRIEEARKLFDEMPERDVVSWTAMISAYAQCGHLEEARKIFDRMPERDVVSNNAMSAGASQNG
- procedure-text: high-throughput RNA pulldown from lysate on Ni-NTA beads; HRP: 50 mM Tris pH 8, 150 mM NaCl, 1 mM beta-mercaptoethanol, 50 ug/ml BSA, 3 ug/ml yeast RNA, 0.5% heparin; ITC and FP: Tris pH 8, 200 mM KCl, 5% glycerol; MST: 50 mM Tris pH 8, 200 mM NaCl, 1 mM DTT, BSA, heparin, 0.05% Tween 20
- setup-conditions: tags: N-terminal His-eGFP; label: 5' Cy5
Hi there, I'd appreciate the recorded pKd for every entry that follows.
Numbers only, as −log10 of the molar value.

binder: AUUACACGUGA (ssRNA) [Cy5-rpoA]
observable: pKd
meas-value: 6.38

As a next step, examine the binder that follows.
## Task If you can, please state the reported pKd value of AUUAGACGUGA (ssRNA) [Cy5-rpoA-G] .
## Result 7.77
